- method.summary: In vivo intravenous pharmacokinetic study of RPG without or with QCT in rats
- Design: species or system Sprague-Dawley rats
- condition.label: Sprague-Dawley, rat, plasma, iv, 0.4 mg/kg, RPG 0.4 mg/kg iv with QCT 25 mg/kg iv
- Protocol: Rats were anesthetized via intramuscular injection of 10 mg/kg zoletil. The femoral vein and artery of the rats were cannulated using a polyethylene tube (BD Medical, Franklin Lakes, NJ, USA). […] The vehicle solutions for the intravenous and oral doses were composed of PEG 400 and aqueous 0.3% CMC solution (50:50 v/v). […]
readout: AUC (ng·h/mL)

molecule	readout	quantitative.result
CCOc1cc(CC(=O)N[C@@H](CC(C)C)c2ccccc2N2CCCCC2)ccc1C(=O)O [RPG, Repaglinide]	AUC	1550

====

- method.summary: In vivo intravenous pharmacokinetic study of RPG without or with QCT in rats
- Design: species or system Sprague-Dawley rats
- condition.label: Sprague-Dawley, rat, plasma, iv, 0.4 mg/kg, RPG 0.4 mg/kg iv, RPG alone, read-out: Vss
readout: Vd (L/kg)

molecule	readout	quantitative.result
CCOc1cc(CC(=O)N[C@@H](CC(C)C)c2ccccc2N2CCCCC2)ccc1C(=O)O [RPG, Repaglinide]	Vd	0.293

====

- Tested on: microsomal metabolism of RPG (repaglinide)
- method.summary: In vitro inhibition of RPG metabolism by QCT in HLM
- Assay type: in vitro ADME, human
- condition.label: human, human liver microsomes, probe RPG (repaglinide), 1, 3, 10, 30 and 100 μM
pKi: −log10 of the molar value.
readout: pKi

molecule	readout	quantitative.result
O=c1c(O)c(-c2ccc(O)c(O)c2)oc2cc(O)cc(O)c12 [QCT, Quercetin]	pKi	4.62

====

- method.summary: In vivo oral pharmacokinetic study of RPG without or with QCT in rats
- Parameters: species or system Sprague-Dawley rats
- condition.label: Sprague-Dawley, rat, plasma, po, 0.4 mg/kg, rats, RPG 0.4 mg/kg oral with QCT 100 mg/kg oral; read-out: F (absolute oral bioavailability)
readout: bioavailability (%)

molecule	units	quantitative.result
CCOc1cc(CC(=O)N[C@@H](CC(C)C)c2ccccc2N2CCCCC2)ccc1C(=O)O [RPG, Repaglinide]	%	95.1

====

- method.summary: In vitro microsomal metabolism of RPG (disappearance) in HLM
- Type: in vitro ADME, human
- condition.label: human, human liver microsomes, Table S3, source Figure 3; read-out: Km used for estimation of R
readout: Km (µM)

compound	readout	units	quantitative.result
CCOc1cc(CC(=O)N[C@@H](CC(C)C)c2ccccc2N2CCCCC2)ccc1C(=O)O [RPG, Repaglinide]	Km	µM	27

====

- method.summary: In vivo intravenous pharmacokinetic study of RPG without or with QCT in rats
- Parameters: species or system Sprague-Dawley rats
- condition.label: Sprague-Dawley, rat, plasma, iv, 0.4 mg/kg, RPG 0.4 mg/kg iv, RPG alone
readout: AUC (ng·h/mL)

compound	quantitative.result
CCOc1cc(CC(=O)N[C@@H](CC(C)C)c2ccccc2N2CCCCC2)ccc1C(=O)O [RPG, Repaglinide]	845

====

- Test system: microsomal metabolism of RPG (repaglinide)
- method.summary: In vitro inhibition of RPG metabolism by QCT in HLM
- Assay type: in vitro ADME, human
- condition.label: human, human liver microsomes, probe RPG (repaglinide), 3 μM, IC50 of QCT on the microsomal metabolism of RPG, HLM 0.5 mg/mL, 3 μM RPG
pIC50: −log10 of the molar value.

compound	pIC50
O=c1c(O)c(-c2ccc(O)c(O)c2)oc2cc(O)cc(O)c12 [QCT, Quercetin]	5.52

From: paper PMC8224802
